Data origin: ChEMBL document CHEMBL2385071

PROTOCOL_NOTES: Half life in rat at 5 mg/kg, iv by HPLC-MS analysis
Assay type: ADME, organism-based
Design: dose 5 mg/kg, route intravenous
TEST_CONTEXT: in vivo
READOUT_TYPE: half-life (h)
Note: unit h is implicit; provide only the numeric part.

[ask] Which half-life value belongs to "Cc1cc(=O)oc2c(Cl)c(OCCCCN3CCC(c4noc5cc(F)ccc45)CC3)ccc12" ?
[reply] 5

* * *

PROTOCOL_NOTES: Half life in rat at 12 mg/kg, po by HPLC-MS analysis
Format: ADME, organism-based
Design: dose 12 mg/kg, route oral
TEST_CONTEXT: in vivo
READOUT_TYPE: half-life (h)
Give the value, in units of h, as a plain number.

[ask] // query half-life value for entry "Cc1cc(=O)oc2c(Cl)c(OCCCCN3CCC(c4noc5cc(F)ccc45)CC3)ccc12"
[reply] 6.7

* * *

# 5-hydroxytryptamine receptor 2A (Rattus norvegicus): Ki values follow
# Sequence (P14842 whole entry): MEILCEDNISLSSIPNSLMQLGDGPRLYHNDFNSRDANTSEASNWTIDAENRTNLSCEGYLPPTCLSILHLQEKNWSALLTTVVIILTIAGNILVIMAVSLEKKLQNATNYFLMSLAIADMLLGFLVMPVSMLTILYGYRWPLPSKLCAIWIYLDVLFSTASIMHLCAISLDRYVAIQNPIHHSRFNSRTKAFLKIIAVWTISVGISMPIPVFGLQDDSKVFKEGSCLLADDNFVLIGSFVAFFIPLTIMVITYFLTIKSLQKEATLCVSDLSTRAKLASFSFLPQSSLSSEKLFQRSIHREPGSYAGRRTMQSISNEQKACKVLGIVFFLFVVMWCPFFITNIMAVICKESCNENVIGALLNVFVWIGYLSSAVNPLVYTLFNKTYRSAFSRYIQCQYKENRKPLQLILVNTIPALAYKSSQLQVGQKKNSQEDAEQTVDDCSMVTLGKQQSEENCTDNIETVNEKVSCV

Consider the reported Ki for these molecules:
COc1cccc(-c2cc(=O)oc3cc(OCCCCN4CCC(c5noc6cc(F)ccc56)CC4)ccc23)c1; > 10 µM
CC(C)c1cc(=O)oc2cc(OCCCCN3CCC(c4noc5cc(F)ccc45)CC3)ccc12; > 10 µM

Continue with the molecule presented below.
[ask] Give recorded Ki with 5-hydroxytryptamine receptor 2A (Rattus norvegicus) for the following molecule: "O=c1cc(-c2cccs2)c2ccc(OCCCCN3CCC(c4noc5cc(F)ccc45)CC3)cc2o1"
[reply] > 10 µM

* * *

Sequence of the target: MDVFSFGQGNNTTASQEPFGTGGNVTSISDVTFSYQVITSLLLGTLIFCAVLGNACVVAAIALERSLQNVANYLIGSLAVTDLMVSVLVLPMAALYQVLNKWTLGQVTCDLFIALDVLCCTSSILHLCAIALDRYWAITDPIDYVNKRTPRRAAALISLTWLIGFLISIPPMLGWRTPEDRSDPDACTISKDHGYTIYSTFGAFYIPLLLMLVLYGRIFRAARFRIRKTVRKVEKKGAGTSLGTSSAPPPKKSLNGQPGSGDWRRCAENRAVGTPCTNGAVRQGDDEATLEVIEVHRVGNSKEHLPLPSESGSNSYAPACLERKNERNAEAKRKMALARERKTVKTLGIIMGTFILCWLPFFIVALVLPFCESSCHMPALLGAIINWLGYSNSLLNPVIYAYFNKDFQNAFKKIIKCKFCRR
READOUT_TYPE: Ki (nM)
Use nM as the unit, but write only the number.

COc1cccc(N2CCN(CCCCOc3ccc4c(C)cc(=O)oc4c3)CC2)c1; 89.2
Cc1cc(=O)oc2cc(OCCCCN3CCN(c4ccccn4)CC3)ccc12; 102

[ask] Any idea what Ki was measured for "COc1ccccc1N1CCN(CCCCOc2ccc3c(C)cc(=O)oc3c2C)CC1" ?
[reply] 112

* * *

What follows is a record of Ki for 5-hydroxytryptamine receptor 1A (Rattus norvegicus).

COc1cccc(-c2cc(=O)oc3cc(OCCCCN4CCC(c5noc6cc(F)ccc56)CC4)ccc23)c1; > 10 µM
O=C1CC(c2ccccc2)c2ccc(OCCCCN3CCC(c4noc5cc(F)ccc45)CC3)cc2O1 (stereo not drawn); > 10 µM

Next up:
[ask] I would be grateful if you could share the reported Ki for "O=c1cc(-c2ccc(F)cc2)c2ccc(OCCCCN3CCC(c4noc5cc(F)ccc45)CC3)cc2o1" .
[reply] > 10 µM

* * *

SYSTEM: 5-hydroxytryptamine receptor 1A (Rattus norvegicus)
Ki values, listed per item

Would you please look over these solved cases?
O=c1cc(C2CC2)c2ccc(OCCCCN3CCC(c4noc5cc(F)ccc45)CC3)cc2o1; > 10 µM
CC(C)c1cc(=O)oc2cc(OCCCCN3CCC(c4noc5cc(F)ccc45)CC3)ccc12; > 10 µM

Attention now turns to another entry.
[ask] Suppose we examine the compound "COc1ccccc1N1CCN(CCCCOc2ccc3c(CO)cc(=O)oc3c2)CC1" ; what Ki value has been reported?
[reply] > 10 µM
